experiment: Inhibition of goat Ca2+-ATPase assessed as liberation of inorganic phosphate preincubated for 5 mins measured after 30 mins following ATP addition by colorimetric analysis in presence of Mg2+; design: species or system Capra hircus; conditions: read-out: I50
Here the recorded pIC50 is given for each entry.
pIC50 here: minus log base 10 of the concentration, concentration in moles per litre.

Example entries begin here.
CCOC(=O)C1=C(C)NC(=O)NC1c1ccc(O)cc1 (centres undefined); 3.54
CCOC(=O)C1=C(C)NC(=O)NC1c1cccc([N+](=O)[O-])c1 (centres undefined); 3.88
CCOC(=O)C1=C(C)NC(=O)NC1c1ccccc1 (centres undefined); 3.65

Note: attention shifts to another entry.
Name the reported pIC50 value associated with the compound CCOC(=O)C1=C(C)NC(=O)NC1c1ccccc1Cl (centres undefined)
3.57
